# System: Saccharomyces cerevisiae
# procedure.summary: protein stability index of tFT-peptide fusion (C-terminal peptide) (PSI (0-1 scale)); higher = more stable (slower turnover)
# measurement.context: genetic background: das1 deletion; temperature: 30 C
measurement.type: protein stability index

[[record]]
sequence_input = "QIVGRYVVDTSK [ADH1 C-terminal 12 aa]"
measured = 0.683

[[record]]
sequence_input = "GAGALAAAAMLL [CWP2 C-terminal 12 aa]"
measured = 0.711

[[record]]
sequence_input = "SEVKGYSKLNIV [ASI3 C-terminal 12 aa]"
measured = 0.695

[[record]]
sequence_input = "VKEIPEYSHLID [GCN5 C-terminal 12 aa]"
measured = 0.718

[[record]]
sequence_input = "KTVSDEEYAYIV [APM2 C-terminal 12 aa]"
measured = 0.69


###

# Test system: Saccharomyces cerevisiae
# procedure.summary: protein stability index of tFT-peptide fusion (C-terminal peptide) (PSI (0-1 scale)); higher = more stable (slower turnover)
# measurement.context: genetic background: das1 deletion; temperature: 37 C
Given measured protein stability index, output True if it is greater than or equal to 0.5 and False if not.

[[record]]
sequence_input = "FYLSSCFLFLRF"
test_target = "Saccharomyces cerevisiae"
assigned_class = "False"

[[record]]
sequence_input = "APTMAIIVVHVR"
test_target = "Saccharomyces cerevisiae"
assigned_class = "False"

[[record]]
sequence_input = "KKIKKYTRKLKI"
test_target = "Saccharomyces cerevisiae"
assigned_class = "True"

[[record]]
sequence_input = "PCLPLTPMWTLF"
test_target = "Saccharomyces cerevisiae"
assigned_class = "True"

[[record]]
sequence_input = "HVLALIFLYIPD"
test_target = "Saccharomyces cerevisiae"
assigned_class = "True"

[[record]]
sequence_input = "LWAPFWVSRVTA"
test_target = "Saccharomyces cerevisiae"
assigned_class = "True"


###

# System: Saccharomyces cerevisiae
# procedure.summary: protein stability index of tFT-peptide fusion (C-terminal peptide) (PSI (0-1 scale)); higher = more stable (slower turnover)
# measurement.context: genetic background: wild type; temperature: 30 C
Reported protein stability index is given for each of the following sequences.
measurement.type: protein stability index

[[record]]
sequence_input = "ERKKIKDKIKKN"
test_target = "Saccharomyces cerevisiae"
measurement_type = "protein stability index"
measured = 0.702

[[record]]
sequence_input = "RNDAARLLGESG"
test_target = "Saccharomyces cerevisiae"
measurement_type = "protein stability index"
measured = 0.698

[[record]]
sequence_input = "ASLTNERCGASR"
test_target = "Saccharomyces cerevisiae"
measurement_type = "protein stability index"
measured = 0.679

[[record]]
sequence_input = "TRRGAAAEDQEK"
test_target = "Saccharomyces cerevisiae"
measurement_type = "protein stability index"
measured = 0.697

[[record]]
sequence_input = "VPRAPSPCPVSL"
test_target = "Saccharomyces cerevisiae"
measurement_type = "protein stability index"
measured = 0.71

[[record]]
sequence_input = "PPPHIPPPPLSA"
test_target = "Saccharomyces cerevisiae"
measurement_type = "protein stability index"
measured = 0.682


###

Measured protein stability index, listed per entry.
# System: Saccharomyces cerevisiae
# procedure.summary: protein stability index of tFT-peptide fusion (C-terminal peptide) (PSI (0-1 scale)); higher = more stable (slower turnover)
# measurement.context: genetic background: wild type; temperature: 30 C
measurement.type: protein stability index

[[record]]
sequence_input = "EGDGVGCWWELW"
measurement_type = "protein stability index"
measured = 0.683

[[record]]
sequence_input = "PSLPPVPPPPRP"
measurement_type = "protein stability index"
measured = 0.71

[[record]]
sequence_input = "GGPIQAGLSFPG"
measurement_type = "protein stability index"
measured = 0.685

[[record]]
sequence_input = "RDSDSSLRHNSH"
measurement_type = "protein stability index"
measured = 0.682

[[record]]
sequence_input = "DGLGSSGCCLCW"
measurement_type = "protein stability index"
measured = 0.693

[[record]]
sequence_input = "WNWSIITTENKP"
measurement_type = "protein stability index"
measured = 0.7

[[record]]
sequence_input = "QSNQEETRQDGT"
measurement_type = "protein stability index"
measured = 0.687

[[record]]
sequence_input = "VPDGPAHIPLPL"
measurement_type = "protein stability index"
measured = 0.683

[[record]]
sequence_input = "SSLQGSCPSKSL"
measurement_type = "protein stability index"
measured = 0.7

